# ASSAYED TARGET: APOL1 G1 (Homo sapiens, UniProt O14791, I384M/S342G)
# Sequence (O14791 28-398 S342G/I384M): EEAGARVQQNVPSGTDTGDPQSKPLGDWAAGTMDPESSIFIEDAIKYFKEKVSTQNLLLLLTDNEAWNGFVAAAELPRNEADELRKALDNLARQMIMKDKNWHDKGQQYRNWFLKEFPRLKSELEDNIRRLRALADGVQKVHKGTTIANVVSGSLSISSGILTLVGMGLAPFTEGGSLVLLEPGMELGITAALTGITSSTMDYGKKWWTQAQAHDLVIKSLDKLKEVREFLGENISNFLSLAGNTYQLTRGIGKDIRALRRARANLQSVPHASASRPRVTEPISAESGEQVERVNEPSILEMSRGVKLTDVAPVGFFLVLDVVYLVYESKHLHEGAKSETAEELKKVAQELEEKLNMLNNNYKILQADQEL
# ASSAY NOTES: MultiTox-Fluor Multiplex Cytotoxicity Assay, tet-inducible APOL1 G1 T-REx-HEK293 cells
# Format: cell-based
# Parameters: expressed in transfected cells; host or cells: T-REx HEK293, clone G1 DC3.25 (pAAVS1-Puro-APOL1 G1)
# PROTOCOL CONDITIONS: Multi-Tox Assay; APOL1 variant not given
For each entry below, report its Multi-Tox Assay Max Activity (%) value.
Express the reported value numerically, then name its unit.

[
  {
    "COMPOUND": "C[C@H]1C[C@@]2(C[C@@H](c3cn(CC4CCOCC4)nn3)N1)OCC(F)(F)c1cc(Cl)sc12",
    "Multi-Tox Assay Max Activity (%)": "97.0%"
  },
  {
    "COMPOUND": "C[C@H]1CC2(C[C@@H](c3cn(C)nn3)N1)OCC(C)(C)c1sc(C(F)(F)F)cc12 (single isomer, unassigned)",
    "Multi-Tox Assay Max Activity (%)": "100.0%"
  },
  {
    "COMPOUND": "Cc1ccc([C@@H]2C[C@]3(C[C@H](C)N2)OCCc2cc(Cl)sc23)nn1 (racemic)",
    "Multi-Tox Assay Max Activity (%)": "99.7%"
  }
]

Output Multi-Tox Assay Max Activity (%) of Cc1ccnc([C@@H]2C[C@]3(C[C@H](C)N2)OCCc2cc(Cl)sc23)c1 (racemic)
98.0%
